FYI, the data here is from patent US20200255503A1.

ASSAY SYSTEM: T1, Fel d1 (B-A)-mmH (cat (Felis domesticus))
T1 construct: Expressed in CHO cells; also called rFel d1.mmH; rFel d1-mmH
T1 sequence (chain, as listed by the source limits assumed): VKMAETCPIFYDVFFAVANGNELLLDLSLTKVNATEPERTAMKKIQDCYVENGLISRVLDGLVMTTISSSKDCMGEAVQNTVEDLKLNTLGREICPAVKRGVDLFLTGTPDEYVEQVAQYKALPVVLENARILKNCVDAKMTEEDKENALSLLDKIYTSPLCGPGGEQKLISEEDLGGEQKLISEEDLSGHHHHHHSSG
ASSAY EXPLANATION: SPR, mAb captured, Fel d1 (B-A)-mmH injected, 25 C;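 further: rate constants obtained by fitting sensorgrams to a one-to-one binding model, Kd computed as koff over kon, half-life derived from koff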
Kindly supply the reported t1/2 values for the records listed here.
The reply should be a number in min, with the unit left off.

q: Give the measured t1/2 of H4H2797P (antibody, human IgG4, V domains shown, human IgG4 Fc (prefix H4H)) VH: QVQLVESGGGVVLPGRSLRLSCAASGFTFSSYLMYWVRQAPGKGLEWVAVIWYDGSNKFYGDSVKGRFTISRDNSKNTLYLQMNSLRAEDTAVYYCARDNGNSGYEDSWNAFDIWGQGTMVTVSS VL: DIQMTQSPSSLSASVGDRVTITCRASQDIYNYLAWFQQKPGKAPKSLIYAASSLQTGVPSQFSGSGSGTDFTLTISSLQPEDFATYYCQQYNNYPFTFGPGTKVDIK .
a: 6

q: Subsequent entry: H4H2607B (antibody, human IgG4, V domains shown, human IgG4 Fc (prefix H4H)) VH: EVQLVESGGGLVKPGGSLRLSCAASGFTFSDYYMNWIRQAPGKGLEWISYLSSSGSATYYADSVKGRFTISRDNAKNSLYLQMNSLRAEDTAVYYCARDGKYNTVAGDYWGQGTTVTVSS VL: DIQLTQSPSSLSASVGDRVTITCRASQGIRNDLGWYQQKPGKAPKRLIYAASSLQSGVPSRFSGSGSGTEFTLTISSLQPEDFATYYCLQHNSYPYTFGQGTKVEIKR
a: 21

q: Likewise for H4H2597B (antibody, human IgG4, V domains shown, human IgG4 Fc (prefix H4H)) VH: EVQLVESGGGLVQPGGSLRLSCAVSGFTFSNYAMNWVRQAPGKGLEWVSVISDSGRSTYYADSVKGRFTISRDNSKNTLYLQMNSLRAEDTAVYFCAKRYNWNLHYFDYWGQGTTVTVSS VL: EIVLTQSPDFQSVTPKEKVTITCRASQSIGGSLHWYQQKPDQSPKLLIKYASQSFSGVPSRFSGSGSGTDFTLTINSLEAEDAATYYCLQSSSLRTFGQGTKVEIKR ?
a: 21

q: Do the same for H1M1230N (antibody, V domains shown, chimeric, human variable domains with mouse Fc (prefix H1M)) VH: EVQLVESGGGLVQPGGSLRLSCTASGFIFSNFWMTWVRQAPGKGLEWVANIKQDGSETYCVDSVKGRFTISRDHAKNSLFLQMNSLRAEDTAVYYCARGAGTIYYYGMDVWGQGTTVIVSS VL: DIQMTQSPSSVSASVGDRLTITCRASQDISSWLTWYQQKPGKAPNLLIYAASGLQSGVPSRFSGSGSGTDFTLTISNLQPEDFATYYCQQANSFPLTFGQGTRLEIK please
a: 23

q: Queued: H2M1233N (antibody, mouse IgG2, V domains shown, chimeric, human variable domains with mouse IgG2 Fc (prefix H2M)) VH: QVVLVESGGGVVQPGRSLRLSCAASGFTFSSYGMHWVRQAPGKGLEWVAVIWYDGSNKYYVDSVKGRFTISRDNSNNTIYLQMNSLRAEDTAVYYCARSLIPVAGTDPIFGYWGQGTLVTVSS VL: DIQMTQSPSTLSASVGDRVTITCRASQSVSSWLAWYQQKPGKAPKLLIFKASGLESGVPFRFSGSGSGTEFTLTISSLQPDDFATYYCQQYNTYSPTFGQGTKVEIK
a: 70
